tested.on: Rat brain protein farnesyltransferase (Rattus norvegicus, UniProt Q02293+Q04631)
Construct: Rat brain protein farnesyltransferase activity is measured; from tissue; host or cells: rat brain
protocol.description: % inhibition of farnesylation, scintillation proximity assay with biotin-K Ras B fragment
Type: biochemical
applied.conditions: Table 2; 1 × 10^-6 M
Method: The ability of the compounds of the invention to inhibit protein farnesyltransferase or protein geranylgeranyltransferase can be measured according to the method of Moores, et al., J. Biol. Chem. 266: 14603 (1991) or the method of Vogt, et al., J. Biol. Chem. 270:660-664 (1995). […] In addition, in vitro inhibition of protein farnesyltransferase may be measured by the following procedure. […] The % inhibition of protein farnesyltransferase was determined for representative compounds of the invention.
Kindly return Met if reported % inhibition at 1 × 10^-6 M is no lower than 60%; return Not met if it is lower.

compound | category.label
CSCC[C@H](NC(=O)c1ccc(C[C@H]2CC[C@@H](c3ccccc3)CC2)cc1-c1ccccc1C)C(=O)O [Example 790] | Met
CSCC[C@H](NC(=O)c1ccc(CNc2ccccc2CCO)cc1-c1ccccc1)C(=O)O [Example 671] | Not met
CSCCC(NC(=O)c1ccc(CNC(CO)c2ccccc2)cc1-c1ccccc1)C(=O)O (centres unmarked) [Example 658] | Met
CSCC[C@H](NC(=O)c1ccc(-c2ccccc2-c2ccccc2)cc1-c1ccccc1C)C(=O)[O-].[Li+] [Example 786] | Not met
Cc1ccccc1-c1cc(CCc2ccccc2Oc2ccccc2)ccc1C(=O)N[C@@H](CC[S+](C)[O-])C(=O)O (some centres unmarked) [Example 456] | Met
CSCC[C@H](NC(=O)c1ccc(NC(=O)OCCCl)cc1-c1ccccc1)C(=O)O [Example 979] | Not met
CSCC[C@H](NC(=O)c1ccc(NCC(CO)Cc2ccccc2)cc1-c1ccccc1C)C(=O)O (some centres unmarked) [Example 476] | Met
CSCC[C@H](NC(=O)c1ccc(CCc2cnc(Oc3ccccc3)cn2)cc1-c1ccccc1C)C(=O)O [Example 813] | Met
CSCC[C@H](NC(=O)c1ccc(CN(C(=O)c2ccccc2)C(CC2CCCCC2)CC2CCCCC2)cc1-c1ccccc1C)C(=O)O [Example 910] | Not met
CCSC[C@H](CC1CCCCC1)NCc1ccc(C(=O)N[C@@H](CCSC)C(=O)O)c(-c2ccccc2C)c1 [Example 403] | Met
CSCC[C@H](NC(=O)c1ccc(CNCc2ccc(N)cc2)cc1-c1ccccc1)C(=O)O [Example 653] | Met
Cc1ccccc1-c1cc(CN(C2CC2)C2(CC3CCCCC3)CCC2)ccc1C(=O)N[C@@H](CCS(C)(=O)=O)C(=O)O [Example 334] | Met
CSCC[C@H](NC(=O)c1ccc(/C=C/c2ccc3ccccc3c2)cc1-c1ccccc1C)C(=O)O [Example 465] | Met
CSCC[C@H](NC(=O)c1ccc(CNc2ccc(OC(F)(F)F)cc2)cc1-c1ccccc1)C(=O)O [Example 691] | Not met
CSCC[C@H](NC(=O)c1ccc(CN(C2CC2)C(C)(C)CC2CCCCC2)cc1-c1ccccc1C)C(=O)O [Example 316] | Met
Cc1ccccc1-c1cc(CNC(C)(C)Cc2ccccc2)ccc1C(=O)N[C@@H](CCS(C)(=O)=O)C(=O)O [Example 311] | Met
CSCC[C@H](NC(=O)c1ccc(/C=C/CC2CCCCC2)cc1-c1ccccc1C)C(=O)O [Example 471] | Met
